The binders listed here are annotated with their Kd.
target: T1, human transferrin receptor (hTfR) fused to EGFP, on CHO cells (human, UniProt P02786 1-760); assay: apparent Kd, flow cytometry, CHO cells
T1 construct: whole, on cells; also called human TfR; CHO-hTfR-EGFP; not shown: EGFP from pEGFP-C1 vector, fused to the N-terminal (intracellular) end of hTfR
T1 sequence (P02786 whole entry, the tested form may be a part): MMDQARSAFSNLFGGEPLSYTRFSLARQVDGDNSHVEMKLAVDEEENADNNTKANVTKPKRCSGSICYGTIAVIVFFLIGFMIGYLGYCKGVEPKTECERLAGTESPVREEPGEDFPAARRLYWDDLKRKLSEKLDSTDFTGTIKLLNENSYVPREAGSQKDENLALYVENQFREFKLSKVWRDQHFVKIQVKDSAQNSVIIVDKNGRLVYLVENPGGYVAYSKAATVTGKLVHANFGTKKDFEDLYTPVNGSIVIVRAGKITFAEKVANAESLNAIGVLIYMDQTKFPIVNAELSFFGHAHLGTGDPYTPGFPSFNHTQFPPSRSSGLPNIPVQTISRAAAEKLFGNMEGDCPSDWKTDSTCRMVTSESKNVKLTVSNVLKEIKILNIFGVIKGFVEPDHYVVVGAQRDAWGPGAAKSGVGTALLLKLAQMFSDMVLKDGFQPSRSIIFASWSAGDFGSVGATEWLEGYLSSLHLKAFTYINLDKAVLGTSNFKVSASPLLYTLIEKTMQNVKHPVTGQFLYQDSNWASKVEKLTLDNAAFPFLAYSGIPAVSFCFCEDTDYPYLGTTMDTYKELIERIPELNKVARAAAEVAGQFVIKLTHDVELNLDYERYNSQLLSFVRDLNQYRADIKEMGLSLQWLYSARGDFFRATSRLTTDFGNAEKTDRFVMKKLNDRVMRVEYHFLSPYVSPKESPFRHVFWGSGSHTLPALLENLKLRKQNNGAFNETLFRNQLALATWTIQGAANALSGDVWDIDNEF
Your answer should be a plain number; it is taken to be in nM.

1. VHH A11 (C5^V11) (VHH) VHH: EVQLVESGGGVVQPGGSLKLSCVASGTDFSINYIRWYRQAPGKQREFVAGFTATGNTNYADSMKGRFTISRDNTKNAVYLQIDSLKPEDTAVYYCYMLDKWGQGTQVTVSS: 3.4
2. B8^V33 (VHH) VHH: EVQLVESGGGVVQPGGSLRLSCAASGEIFSINFMRWYRQAPGKQREWVAGFTRDGSTNYPDSAKGRFTISRDNAKNTVYLQIDSLKPEDTAVYYCYMLKTWGQGTQVTVSS: 50
3. C5^V21 (VHH) VHH: EVQLVESGGGVVQPGGSLKLSCVASGTDFSINFIRWYRQAPGKQREFVAGWTATGNTNYADSMKGRFTISRDNTKNAVYLQIDSLKPEDTAVYYCYMLDKWGQGTQVTVSS: 2.4

Pending binder:
Could you share which Kd value was measured for B8^V5 (VHH) VHH: EVQLVESGGGVVQPGGSLRLSCAASGEIFSINFMRWYRQAPGKIREWVAGFTRDGSTNYPDSAKGRFTISRDNAKNTVYLQIDSLKPEDTAVYYCYMLDTWGQGTQVTVSS ?
2.3
